Test: photoluminescence quantum yield (fraction); solvent given as SMILES
Details: in CC(C)O
We use 0.08 as the dividing line for photoluminescence quantum yield: on or above the line is Met, below is Not met.

SMILES_RECORD: COc1cccc2c1C(=O)c1ccccc1-2
LABEL: Not met

[in] Could you please find out whether "COc1ccc(/C=C/c2ccccc2)cc1OC" has photoluminescence quantum yield that meets 0.08 or exceeds it?
[out] Not met

[in] Try this compound too: "Cc1ccc(-n2c(-c3ccccc3O)nc(-c3ccccc3O)c2-c2ccccc2O)cc1"
[out] Met

[in] Similarly, "COc1nc(Cl)nc(Nc2ccc3c4c(cccc24)C(=O)c2ccccc2-3)n1" ?
[out] Met

---

Assay: photoluminescence quantum yield (fraction); solvent given as SMILES
Details: in CCOCC
RECORDED_METRIC: photoluminescence quantum yield
Lab note: write the figure by itself, no unit.

SMILES_RECORD: CC1=CC(C)=[N+]2C1=C(c1ccc(N(C)C)cc1)c1c(C)cc(/C=C/c3ccc(N(C)C)cc3)n1[B-]2(F)F
NUMERIC_VALUE: 0.78

[in] So what's the measured photoluminescence quantum yield for this one? "CCCCCCCCC1(CCCCCCCC)c2ccccc2-c2ccc(N(c3ccc(-n4c5ccccc5c5ccccc54)cc3)c3ccc4c(c3)C(CCCCCCCC)(CCCCCCCC)c3ccccc3-4)cc21"
[out] 0.37

[in] Try this molecule next: "COc1ccc(C2=C3C=c4c(oc5cc6c(cc45)[C@H]4CC[C@]5(C)C(=O)CC[C@H]5[C@@H]4CC6)=[N+]3[B-](F)(F)n3c2cc2c4cc5c(cc4oc23)CC[C@@H]2[C@@H]5CC[C@]3(C)C(=O)CC[C@@H]23)cc1"
[out] 0.88

---

Entries annotated with measured photoluminescence quantum yield
Assay: photoluminescence quantum yield (fraction); solvent given as SMILES
Details: in CO
The answer should be written as a number, with no unit following it.

[in] Which photoluminescence quantum yield value is on record for "N#Cc1ccc(C#Cc2ccc3ccc4ccc(C#Cc5ccc(C#N)cc5)c5ccc2c3c45)cc1" ?
[out] 0.734

[in] Now the compound "CN(C)c1ccc(-c2cc(=O)c3ccccc3o2)cc1"
[out] 0.095

[in] Record: "CCN(C)c1ccc(C2=C3C(C)=CC(/C=C/c4ccc(OCC(=O)OC)cc4)=[N+]3[B-](F)(F)n3c(C)cc(C)c32)cc1"
[out] 0.78

---

// photoluminescence quantum yield lookup, one value per entry
Experiment: photoluminescence quantum yield (fraction); solvent given as SMILES
Conditions: in C1CCCCC1
# respond with the number and nothing more

Solved cases (3 shown):
SMILES_RECORD: CC(=O)c1c2c(cc3c(N(C)C)cccc13)CCC2
photoluminescence quantum yield: 0.28

SMILES_RECORD: CN(C)c1cccc2c1C(=O)c1ccccc1-2
photoluminescence quantum yield: 0.0016

SMILES_RECORD: CC1(C)CC(/N=C/c2ccc3ccc4cccc5ccc2c3c45)CC(C)(C)N1[O]
photoluminescence quantum yield: 0.11

[in] Quick check: photoluminescence quantum yield of "CC1=[N+]2C(=C(Oc3ccc4c(c3)CC[C@@H]3[C@@H]4CC[C@]4(C)C(=O)CC[C@@H]34)c3ccc(C)n3[B-]2(F)F)C=C1c1cc2n(c1)[B-](F)(F)[N+]1=CC=CC1=C2c1c(C)cc(C)cc1C" ?
[out] 0.52
